# Assay remarks: PK study in mice, single dose i.p.
# Assay type: in vivo
# Conditions used: mouse, serum, ip, single dose 50 mg/kg i.p.
Measurement type: half-life

Asked: Name the recorded half-life of the item CN(C)c1cc(NC(=O)CNC(C)(C)C)c(O)c2c1C[C@H]1C[C@H]3[C@H](N(C)C)C(O)=C(C(N)=O)C(=O)[C@@]3(O)C(O)=C1C2=O [tigecycline] in your answer.
Given back: ~4.5 h

Recorded values, source patent US20120329761A1.
